Reported pKd by item:
tgt: PDEδ (Homo sapiens, UniProt O43924)
assay: Fluorescence polarization competition binding assay (displacement titration of labeled Atorvastatin-probe)
recorded.conditions: fluorescence polarization assay, displacement of fluorescent-tagged Atorvastatin analog from PDEδ; read-out: KD
Text: Example C.2: Displacement titrations of labeled Atorvastatin-probe for the determination of KD values: Table 3. KD values for compounds of general formula (I) as determined by means of fluorescence polarization assay
pKd: −log10 of the molar value.

Below, each entry is followed by its recorded pKd result.
{"molecule": "Cc1ccc(-n2nc3c(=O)n(CCCC(=O)NCc4ccccn4)nc(C)c3c2C)cc1", "pKd": "6.00 to 7.00"}
{"molecule": "Cc1ccc(-n2nc3c(=O)n(CCCC(=O)NCC4CCCO4)nc(C)c3c2C)cc1 (centres unmarked)", "pKd": "7.00 to 7.52"}
{"molecule": "COc1ccc(CNC(=O)CCCn2nc(C)c3c(C)n(-c4ccc(C)cc4)nc3c2=O)cc1", "pKd": "> 7.52"}
{"molecule": "Cc1c2cnn(-c3ccccc3)c(=O)c2c(C)n1CCCc1nnc(-c2ccncc2)o1", "pKd": "< 6.00"}
{"molecule": "Cc1ccc(-n2nc3c(=O)n(CCCC(=O)NCc4ccco4)nc(C)c3c2C)cc1", "pKd": "7.00 to 7.52"}

q: Record request: pKd value, item Cc1ccc(-n2nc3c(=O)n(CCCC(=O)NC4CCC(C)CC4)nc(C)c3c2C)cc1 (centres unmarked)
a: > 7.52

q: Input Cc1ccc(-c2noc(CCCn3c(C)c4cnn(-c5ccccc5)c(=O)c4c3C)n2)cc1
a: < 6.00

q: Input Cc1ccc(CNC(=O)CCCn2nc(C)c3c(C)n(-c4ccc(C)cc4)nc3c2=O)cc1
a: > 7.52

----------
tgt: PDEδ (Homo sapiens)
assay: Fluorescence polarization competition binding assay (displacement titration of labeled Atorvastatin-probe)
recorded.conditions: fluorescence polarization assay, displacement of fluorescent-tagged Atorvastatin analog from PDEδ; read-out: KD
pKd: −log10 of the molar value.
quantity: pKd

q: Record request: pKd value, item Cc1c2cnn(-c3ccccc3)c(=O)c2c(C)n1CCCC(=O)NC1CCCC(C)C1C (stereo not shown)
a: > 7.52

q: Input Cc1c2cnn(-c3ccccc3)c(=O)c2c(C)n1CCCC(=O)NCc1cccc(Cl)c1
a: 7.00 to 7.52

q: Input COc1cccc(CNC(=O)CCCn2nc(C)c3c(C)n(-c4ccccc4)nc3c2=O)c1
a: 7.00 to 7.52

q: Input COc1ccc(CNC(=O)CCCn2nc(C)c3c(C)n(-c4ccccc4)nc3c2=O)cc1
a: 7.00 to 7.52

----------
tgt: UniProtKB O43924
assay: Fluorescence polarization competition binding assay (displacement titration of labeled Atorvastatin-probe)
recorded.conditions: fluorescence polarization assay, displacement of fluorescent-tagged Atorvastatin analog from PDEδ
quantity: Kd

q: Record request: Kd value, item Cc1c(Cl)cccc1NC(=O)CCCn1nc(C)c2c(C)n(-c3ccccc3)nc2c1=O
a: < 0.03 µM

----------
tgt: PDEδ (Homo sapiens, UniProt O43924)
assay: Fluorescence polarization competition binding assay (displacement titration of labeled Atorvastatin-probe)
quantity: Kd

q: Record request: Kd value, item Cc1ccc(-n2nc3c(=O)n(CCCC(=O)NCc4ccccc4)nc(C)c3c2C)cc1 [Compound 42]
a: < 30 nM
